- Target Or Test System: T1, mf TFRC ecto-mmh (REGN2054), monomeric monkey (cyno) Tfrc ectodomain with C-terminal myc-myc-hexahistidine tag (monkey (cyno), Macaca fascicularis, UniProt H9EXL1 89-760)
- T1 construct: range 89-760; also called mfTfR-mmh; mfTFR-mmh
- T1 sequence (chain, as listed by the source): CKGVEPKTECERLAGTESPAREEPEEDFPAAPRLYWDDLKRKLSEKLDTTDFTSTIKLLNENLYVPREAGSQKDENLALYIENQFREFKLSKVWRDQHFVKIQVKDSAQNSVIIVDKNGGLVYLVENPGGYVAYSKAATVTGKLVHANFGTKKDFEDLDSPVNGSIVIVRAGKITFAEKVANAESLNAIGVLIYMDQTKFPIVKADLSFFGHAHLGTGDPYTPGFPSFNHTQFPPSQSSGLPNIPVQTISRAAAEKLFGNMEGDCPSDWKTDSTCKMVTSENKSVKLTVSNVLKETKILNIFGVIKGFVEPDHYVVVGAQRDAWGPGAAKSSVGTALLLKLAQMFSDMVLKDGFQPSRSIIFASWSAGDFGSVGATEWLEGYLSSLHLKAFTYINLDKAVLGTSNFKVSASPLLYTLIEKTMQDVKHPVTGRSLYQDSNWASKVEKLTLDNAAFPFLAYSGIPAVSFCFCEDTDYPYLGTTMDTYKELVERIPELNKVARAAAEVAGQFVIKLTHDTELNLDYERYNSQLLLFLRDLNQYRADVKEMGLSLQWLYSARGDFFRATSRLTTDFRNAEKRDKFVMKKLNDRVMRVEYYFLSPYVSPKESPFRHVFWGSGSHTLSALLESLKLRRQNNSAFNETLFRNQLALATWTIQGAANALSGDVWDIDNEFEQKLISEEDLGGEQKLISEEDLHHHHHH
- Protocol Notes: SPR (Biacore), mAb captured on anti-human Fc, 100 nM mfTfR-mmh, 25 C
Recorded Metric: 100 nM Ag Bound (RU)
Write the quantity with the unit trailing the number.

# Binder, 100 nM Ag Bound (RU)
data = [
    ("31874B (antibody, human IgG1, kappa, V domains shown, Tested as bivalent human IgG1 from CHO primary supernatant; also called H1H31874B; REGN17517) VH: EVQLVESGGGLVQPGGSLRLSCAASGFAFSSYAMTWVRQAPGKGLEWVSVISGTGGSTYYADSVKGRFTISRDNSKNTLYLQMNSLRAEDTAVYYCAKGGAARRMEYFQYWGQGTLVTVSS VL: DIQMTQSPSSLSASVGDRVTITCRASQGISNYLAWYQQKPGKVPNLLIYAASTLQSGVPSRFSGSGSGTDFTLTISSLQPEDVATYYCQKYNSAPLTFGGGTKVEIKR", "26 RU"),
]

100 nM Ag Bound (RU) for 12802B (antibody, human IgG1, kappa, V domains shown, Tested as bivalent human IgG1 from CHO primary supernatant) VH: QVQLVESGGGLVKPGGSLRLSCAASGFTFSDYFMSWIRQAPGKGLEWVSYISSTGSTINYADSVKGRFTISRDNVKNSLYLQMTSLRVEDTAVYYCTRDNWNYEYWGQGTLVTVSS VL: EIVMTQSPATLSVSPGERATLSCRASQSVSINLAWYQQKPGQAPRLLIFVASTRATGIPARFSGSGSGTEFTLTISSLQSEDFATYYCQQYDIWPYTFGQGTKLEIKR ?
464 RU

Now consider 69329 (antibody, human IgG1, kappa, V domains shown, Tested as bivalent human IgG1 from CHO primary supernatant) VH: EVQLVESGGGLVQPGGSLRLSCAASGFTFSNYWMTWVRQAPGKGLEWVANIKEDGSEKDYVDSVKGRFTISRDNAKNSLYLQMNSLRGEDTAVYYCARDGEQLVDYYYYYVMDVWGQGTTVTVSS VL: DIQMTQSPSSVSASVGDRVTITCRASQGISSWLAWYQQKPGKAPKLLIYAASSLQSGVPSRFSGSGSGTDFTLTISSLQPEDFATYYCQKANSFPYTFGQGTKLEIKR .
8 RU

src = patent US20250049896A1
